# Subject of test: Leucine aminopeptidase (Plasmodium falciparum (isolate 3D7)) (UniProt Q8IL11)
# Sequence (Q8IL11 whole entry, looked up): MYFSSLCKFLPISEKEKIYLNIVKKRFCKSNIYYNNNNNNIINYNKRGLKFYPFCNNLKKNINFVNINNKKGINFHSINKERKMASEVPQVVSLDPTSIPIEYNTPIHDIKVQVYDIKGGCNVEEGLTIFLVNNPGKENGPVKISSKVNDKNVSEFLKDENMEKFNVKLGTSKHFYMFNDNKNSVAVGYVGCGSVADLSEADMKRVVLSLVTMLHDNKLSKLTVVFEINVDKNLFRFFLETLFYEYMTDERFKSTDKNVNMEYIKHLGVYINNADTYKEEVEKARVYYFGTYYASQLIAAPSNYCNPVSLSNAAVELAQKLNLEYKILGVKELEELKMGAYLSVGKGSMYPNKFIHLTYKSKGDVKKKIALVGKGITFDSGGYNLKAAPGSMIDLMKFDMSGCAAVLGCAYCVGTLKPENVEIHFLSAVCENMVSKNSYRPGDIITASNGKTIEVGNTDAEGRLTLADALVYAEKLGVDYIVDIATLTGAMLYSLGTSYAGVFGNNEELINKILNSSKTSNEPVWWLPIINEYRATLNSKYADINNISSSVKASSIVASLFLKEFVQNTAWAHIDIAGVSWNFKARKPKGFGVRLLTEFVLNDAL
# Method notes: P. falciparum M17LAP inhibitors, primary screen, biochemical, fluorogenic H-Leu-NHMec substrate, 1536-well (AID 1619);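 further: plate controls were full reaction with DMSO carrier for no effect and no enzyme background for full effect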
# Experimental setup: recombinant M17LAP, H-Leu-NHMec fluorogenic kinetic assay; at 30 µM; hits give high values
Out of some 220,000 compounds screened, about 830 (0.38%) were called active. Not all results are given here. Results with a measured potency or affinity are listed apart.
Readout label: inhibition (%)

>>> number("CCOc1ccc(NC(=O)C2C3CCC4C(CCC32)C4(Cl)Cl)cc1 (centres undefined)")
9.32
>>> number("O=C(NC1CCN(Cc2ccccc2)CC1)C1CCN(c2nnc(-n3cccc3)s2)CC1")
-1.52
>>> number("Cc1onc(-c2ccccc2Cl)c1C(=O)Nc1ccccc1C(=O)NC(C)C")
9.44
>>> number("CC(C)(C)C1CCc2c(C(=O)NNC(=O)/C=C/C(=O)O)csc2C1 (centres undefined)")
43.8
